Origin of the recorded values: PubChem BioAssay AID1389

Test system: CSM14.1 cells, thapsigargin-induced ATF-4 Western blot
PROTOCOL_NOTES: ER stress ATF-4 upregulation inhibition – CSM14.1 cells, thapsigargin, Western blot, mechanism study for ER stress cell death inhibitors, late-stage follow-up (AID 1389)
Active and inactive are the calls of the source.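 How the source made its calls: active means no visible ATF-4 stress protein band on the western blot after compound pretreatment and chemical ER stress; inactive means the rest.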
Assign a class; possible classes are yes (1) (active), no (0) (inactive)

Worked examples, 3 compounds total:
# COMPOUND, GROUP_LABEL
measured = [
    ("CCCOc1ccc(C2Nc3ccccc3NC3=C2C(=O)CC(c2ccc(OC)c(OC)c2)C3)cc1 (stereo not given)", "yes (1)"),
    ("COc1ccc(C2CC(=O)C3=C(C2)Nc2ccccc2NC3c2cccc(C(F)(F)F)c2)cc1OC (stereo not given)", "no (0)"),
    ("O=C1CC(c2ccccc2)CC2=C1C(c1c(F)cccc1Cl)Nc1ccccc1N2 (stereo not given)", "no (0)"),
]

[ask] Which outcome did this test record for the compound COc1ccc(C2CC(=O)C3=C(C2)Nc2ccccc2NC3c2cccc(Br)c2)cc1OC (stereo not given) ?
[reply] no (0)

[ask] Just curious, what result did CC1(C)CC(=O)C2=C(C1)Nc1ccccc1NC2c1ccc(-c2ccccc2)cc1 (stereo not given) get here?
[reply] no (0)
